Some compounds, each annotated with its measured growth inhibition.
# Assay Comment: NCI Yeast Anticancer Drug Screen. Data for the mlh1 rad18 strain (AID 175)
# Condition Info: S. cerevisiae mlh1 rad18 strain growth inhibition; at 5.0 µM (retest, dose inferred, filed as 0.5); stronger effect = higher value
Compounds without any hit were thinned out: in the full panel of roughly 79,000, 15% have a hit.

{"Compound": "CC(CN(C)C)C(=O)c1cn(C)c2ccccc12 (stereo not drawn)", "growth inhibition / %": -2}
{"Compound": "CC(C)(C)c1c2c(c(C(C)(C)C)c3c1OCN(Cc1ccccc1)C3)OCN(Cc1ccccc1)C2", "growth inhibition / %": -10}
{"Compound": "N#CCC(=O)N/N=C(/CC1(O)C(=O)Nc2c(Cl)cc(Cl)cc21)c1ccccc1 (stereo not drawn)", "growth inhibition / %": 5}
{"Compound": "CCC(c1ccc(OC)cc1)C(O)(CC)c1ccc(OC)cc1 (stereo not drawn)", "growth inhibition / %": -3}
{"Compound": "COC1=C(NC(C)=O)C(=O)c2nc(-c3nc(C(=O)O)c(C)c(-c4ccc(OC)c(OC)c4O)c3N)ccc2C1=O", "growth inhibition / %": 48}
{"Compound": "CCOC(=O)N1c2ccc3ccccc3c2C=CC1C#N (stereo not drawn)", "growth inhibition / %": -2}
{"Compound": "COc1ccc(-c2cc(-c3ccco3)c(C#N)c(=S)n2C2OC(CO)C(O)C(O)C2O)cc1 (stereo not drawn)", "growth inhibition / %": 10}
{"Compound": "CN(C)C(=S)/N=c1\\sn(C)/c(=N\\C(=S)N(C)C)n1C", "growth inhibition / %": -7}
{"Compound": "NC1NCCC(=O)N1CCc1c[nH]c2ccccc12 (stereo not drawn)", "growth inhibition / %": -12}
{"Compound": "Nc1ncc(C(=O)c2ccccc2)cc1[N+](=O)[O-]", "growth inhibition / %": -138}
{"Compound": "O=C1/C(=C/c2ccc3c(c2)OCO3)Sc2scc(-c3ccc(O)c(O)c3)[n+]21", "growth inhibition / %": 27}
{"Compound": "CSC(=Nc1ccccc1)NC(=O)Nc1ccc(Cl)cc1", "growth inhibition / %": -7}
{"Compound": "O=C(c1cccnc1)N(C1CCCCC1)C1CCCCC1", "growth inhibition / %": -10}
{"Compound": "Cc1c(-c2ccccc2)ccnc1/C=N/NS(=O)(=O)c1ccccc1", "growth inhibition / %": -3}
{"Compound": "O=C(c1ccccc1)C1Cc2ccccc2C1=O (stereo not drawn)", "growth inhibition / %": 2}
{"Compound": "CCOC(=O)c1[nH]cc(C)c1-c1ccc2c(-c3ccccc3)nc3ccccc3n12", "growth inhibition / %": 12}
{"Compound": "CC1(C)CC(=O)C(CC2C(=O)c3ccccc3C2=O)C(=O)C1C(=O)C(=O)Nc1cccc2ccc(O)cc12 (stereo not drawn)", "growth inhibition / %": 32}
{"Compound": "O=[N+]([O-])c1ncn(C2OC(CO)C(O)C2O)c1S (stereo not drawn)", "growth inhibition / %": -6}

----------
# Lookup of reported growth inhibition keyed by entry
# Assay Comment: NCI Yeast Anticancer Drug Screen. Data for the bub3 strain (AID 167)
# Condition Info: S. cerevisiae bub3 mutant strain, at 50.0 µM, stronger effect = higher value
Compounds without any hit were thinned out: in the full panel of roughly 79,000, 15% have a hit.

{"Molecule": "CCc1cccc(CC)c1NC(=O)C1=C(C)NC(C)=C(C(=O)Nc2c(CC)cccc2CC)C1c1ccc2c(c1)OCO2", "growth inhibition [%]": 89.2}
{"Molecule": "Cc1ccc(Cl)cc1NC(=O)N(C)CCOC(=O)Nc1cccc(Cl)c1", "growth inhibition [%]": 92.3}
{"Molecule": "O=C1NN(C2=NNC3(C(=O)N2)c2ccccc2-c2ccccc23)C(c2ccccc2)=N/C1=C/c1ccc(Cl)cc1", "growth inhibition [%]": 18.4}
{"Molecule": "O=C(c1ccccc1)C(Br)CCCC(Br)C(=O)c1ccccc1 (stereo not drawn)", "growth inhibition [%]": 97.3}
{"Molecule": "O=C1c2ccc(Cl)cc2C(=O)c2cc(Cl)ccc21", "growth inhibition [%]": 89.2}
{"Molecule": "Cc1cc2c(c([N+](=O)[O-])c1C)C(=O)C(Br)=C(N)C2=O", "growth inhibition [%]": 94}
{"Molecule": "CN(C)CCCNCC(=O)Nc1ccc(S(=O)(=O)c2ccc(NC(=O)CNCCCN(C)C)cc2)cc1", "growth inhibition [%]": 30.2}
{"Molecule": "CCOC(=O)Cc1[nH]c(C(=O)c2ccccc2)cc1C(=O)c1ccccc1", "growth inhibition [%]": -24.4}
